- TARGET ENTITY: Recombinant human cathepsin S (CatS) (Homo sapiens, UniProt P25774)
- Sequence (P25774 115-331): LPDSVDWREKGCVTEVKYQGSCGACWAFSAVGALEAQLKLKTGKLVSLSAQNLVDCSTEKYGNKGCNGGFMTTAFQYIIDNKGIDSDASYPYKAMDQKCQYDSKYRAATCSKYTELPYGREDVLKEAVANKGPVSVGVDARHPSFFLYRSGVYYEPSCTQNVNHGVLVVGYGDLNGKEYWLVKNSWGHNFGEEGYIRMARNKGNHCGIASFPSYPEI
- TEST DESCRIPTION: Recombinant human cathepsin S (CatS) inhibition assay, fluorogenic substrate Z-Valine-Valine-Arginine-AMC
PARAMETER MEASURED: IC50

Reference set (5 entries):
{"COMPOUND": "NC(=O)C(=O)N1CCc2c(c(-c3ccc(Cl)c(C#Cc4ccc(CNCc5ccc(Cl)cc5)cc4)c3)nn2CCCN2CCC(C(F)(F)F)CC2)C1 [Example 452]", "IC50": "100 nM"}
{"COMPOUND": "NC(=O)C(=O)N1CCc2c(c(-c3ccc(Cl)c(C#Cc4ccc(Cl)c(C(=O)NCC5CNCCO5)c4)c3)nn2CCCN2CCSCC2)C1 (stereo not drawn) [Example 580]", "IC50": "30 nM"}
{"COMPOUND": "CS(=O)(=O)N1CCc2c(c(-c3ccc(Cl)c(C#Cc4ccc(CN)cc4)c3)nn2CCCN2CCOCC2)C1 [Example 69]", "IC50": "530 nM"}
{"COMPOUND": "CC(C)(C)OC(=O)N1CCc2ccc(C#Cc3cc(-c4nn(CCCN5CCOCC5)c5c4CN(S(C)(=O)=O)CC5)ccc3Cl)cc2C1 [Example 370]", "IC50": "720 nM"}
{"COMPOUND": "CS(=O)(=O)N1CCc2c(c(-c3ccc(Cl)c(C#Cc4ccc(CNCc5ccc(Cl)cc5)cc4)c3)nn2CCCN2CCN(c3ccccc3)CC2)C1 [Example 180]", "IC50": "20 nM"}

Fill in: IC50 of CC(C)(C)OC(=O)N1CCC(C2CCN(C[C@H](O)Cn3nc(-c4ccc(Cl)c(CCc5ccc(Cl)cc5)c4)c4c3CCN(S(C)(=O)=O)C4)CC2)CC1 [Example 245] is ___
30 nM

* * *

- TARGET ENTITY: Recombinant human cathepsin S (CatS) (Homo sapiens, UniProt P25774)
- TEST DESCRIPTION: Recombinant human cathepsin S (CatS) inhibition assay, fluorogenic substrate Z-Valine-Valine-Arginine-AMC
We begin with a simple list: items and their reported pIC50.
Quick note: pIC50 values are minus log10 of concentrations in mol/L.

Tell me the measured pIC50 of CCN(CC)CC#Cc1cc(-c2nn(C[C@@H](O)CN3CCC(C4CCN(C(=O)OC(C)(C)C)CC4)CC3)c3c2CN(S(C)(=O)=O)CC3)ccc1Cl [Example 236] , please.
5.15

Find the recorded pIC50 belonging to CS(=O)(=O)N1CCc2c(c(-c3ccc(Cl)c(C#Cc4ccc(CNC5CCCc6ccccc65)cc4)c3)nn2CCCN2CCN(c3ccccn3)CC2)C1 (stereo in doubt) [Example 215] and report it.
7.52

* * *

- TARGET ENTITY: Recombinant human cathepsin S (CatS) (Homo sapiens, UniProt P25774)
- TEST DESCRIPTION: Recombinant human cathepsin S (CatS) inhibition assay, fluorogenic substrate Z-Valine-Valine-Arginine-AMC;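 note: Baculovirus-expressed CatS in pH 5.0 sodium acetate buffer with DTT and NaCl, fluorescence read each minute over 20 min, inhibition derived from rate slope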
PARAMETER MEASURED: pIC50
// pIC50 here means minus log10 of the molar concentration (mol/L)

{"MOLECULE": "CCNCc1cc(C#Cc2cc(-c3nn(CCCN4CCCCC4)c4c3CN(S(C)(=O)=O)CC4)ccc2Cl)ccc1Cl", "pIC50": 7.52}

// next item, pIC50 requested
Consider the molecule CS(=O)(=O)N1CCc2c(c(-c3ccc(Cl)c(C#Cc4ccc(CNCc5ccc(Cl)cc5)cc4)c3)nn2CCCN2CC3(COC3)C2)C1 and give its measured pIC50.
6.72
